- System: Trypanosoma cruzi
- method_notes: Antitrypanosomal activity against amastigote form of Trypanosoma cruzi Tulahuen C4 infected in rat L6 cells after 72 hrs by alamar blue assay
- stated_conditions: Tulahuen C4, L6, 72 h
measured_quantity: IC50 (µM)
Give your result in µM as a bare value.

Dear colleague, I am looking for the recorded IC50 of the following molecule: "O=C(Cn1ccnc1[N+](=O)[O-])NCc1ccccc1"
1.35

* * *

- method_notes: Dissociation constant, pKa of the compound
- Format: physicochemical
Class assignment keyed on pKa, ranges lo: < 7; mid: ≥ 7 and < 9; hi: ≥ 9

For this molecule, which bin applies? "Cl.O=[N+]([O-])c1ncn(CCCNc2ccnc3cc(Cl)ccc23)n1"
mid

For this molecule, which bin applies? "Cl.O=[N+]([O-])c1ncn(CCCNc2nc(-c3ccccc3)nc3ccccc23)n1"
lo

For this molecule, which bin applies? "Cl.O=[N+]([O-])c1ncn(CCCCNc2nc(-c3ccccc3)nc3ccccc23)n1"
lo

For this molecule, which bin applies? "Cl.O=[N+]([O-])c1ncn(CCCCNc2ccnc3cc(Cl)ccc23)n1"
mid

For this molecule, which bin applies? "Cl.Cl.O=[N+]([O-])c1ncn(CCCN2CCN(c3ccc(C(F)(F)F)cc3)CC2)n1"
mid

For this molecule, which bin applies? "Cl.Cl.O=[N+]([O-])c1ncn(CCCN2CCN(Cc3ccc(C(F)(F)F)cc3)CC2)n1"
mid

For this molecule, which bin applies? "Cl.O=[N+]([O-])c1ncn(CCCNCc2ccc(C(F)(F)F)cc2)n1"
hi

For this molecule, which bin applies? "Cl.Cl.O=[N+]([O-])c1ncn(CCCCN2CCN(Cc3ccc(C(F)(F)F)cc3)CC2)n1"
mid

For this molecule, which bin applies? "Cl.O=[N+]([O-])c1nccn1CCCNc1nc(-c2ccccc2)nc2ccccc12"
lo

For this molecule, which bin applies? "Cl.O=[N+]([O-])c1ncn(CCCNCc2cc(C(F)(F)F)cc(C(F)(F)F)c2)n1"
hi

For this molecule, which bin applies? "Cl.O=[N+]([O-])c1ncn(CCCCNc2ccnc3cc(C(F)(F)F)ccc23)n1"
mid

Attribution: ChEMBL document CHEMBL1921780
